test system: NCI-H196 complex spheroid growth, percent test/control; test: Anticancer human tumor NCI-H196 cell line growth inhibition [AhR]; settings: second compound 0.316 µM; first compound 3.16 µM; hits give low values
experimental endpoint: viability, T/C (%)
Respond numerically; units are % and should not be typed.

**Query** Would you kindly share the measured viability, T/C for COc1cccc2c1C(=O)c1c(O)c3c(c(O)c1C2=O)CC(O)(C(=O)CO)CC3OC1CC(N)C(O)C(C)O1 (stereo not drawn) + Cc1ccccc1N=Nc1ccc(NC(=O)c2ccnn2C)c(C)c1 ?
**Result** 1.54

**Query** Another compound to look at: COc1cc(Nc2ncc3c(n2)-c2ccc(Cl)cc2C(c2c(F)cccc2OC)=NC3)ccc1C(=O)O + Cc1cncc(-c2nc(NCCc3c[nH]c4ccccc34)c3ncn(C(C)C)c3n2)c1
**Result** 131

**Query** Another compound to look at: COc1cc(C2c3cc4c(cc3C(OC3OC5COC(C)OC5C(O)C3O)C3COC(=O)C23)OCO4)cc(OC)c1O (stereo not drawn) + Cc1cncc(-c2nc(NCCc3c[nH]c4ccccc34)c3ncn(C(C)C)c3n2)c1
**Result** 112

----------
tested on: NCI-H196 complex spheroid growth, percent test/control; experiment: Anticancer human tumor NCI-H196 cell line growth inhibition [AhR]; settings: second compound 0.1 µM; first compound 0.003 µM; hits give low values;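 further: seven days of drug exposure starting three days after plating; 100% = DMSO vehicle control wells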
Field: viability, T/C. Provide a value for each of the compounds that follow.

**Query** Would you kindly share the measured viability, T/C for CC(C)CC(NC(=O)C(Cc1ccccc1)NC(=O)c1cnccn1)B(O)O (stereo not drawn) + Cc1cncc(-c2nc(NCCc3c[nH]c4ccccc34)c3ncn(C(C)C)c3n2)c1 ?
**Result** 109%

**Query** Another compound to look at: Nc1ncn(C2CC(O)C(CO)S2)c(=O)n1 (stereo not drawn) + Cc1ccccc1N=Nc1ccc(NC(=O)c2ccnn2C)c(C)c1
**Result** 93.4%

**Query** Another compound to look at: Nc1ncn(C2CC(O)C(CO)S2)c(=O)n1 (stereo not drawn) + CC(CO)NC(=O)c1cc(-c2ccc(Cl)cc2)nn(-c2cnn(C)c2)c1=O
**Result** 94.2%

----------
system: NCI-H196 complex spheroid growth, percent test/control; assay: Anticancer human tumor NCI-H196 cell line growth inhibition [AhR]; details: second compound 0.1 µM; first compound 0.00949 µM; hits give low values;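 further: seven days of drug exposure starting three days after plating; 100% = DMSO vehicle control wells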
experimental endpoint: viability, T/C (%)
Respond numerically; units are % and should not be typed.

**Query** Would you kindly share the measured viability, T/C for CC(C)CC(NC(=O)C(Cc1ccccc1)NC(=O)c1cnccn1)B(O)O (stereo not drawn) + Cc1cncc(-c2nc(NCCc3c[nH]c4ccccc34)c3ncn(C(C)C)c3n2)c1 ?
**Result** 37.6

**Query** Another compound to look at: Nc1ncn(C2CC(O)C(CO)S2)c(=O)n1 (stereo not drawn) + Cc1ccccc1N=Nc1ccc(NC(=O)c2ccnn2C)c(C)c1
**Result** 99.1

**Query** Another compound to look at: O=C(C=Cn1cnc(-c2cc(C(F)(F)F)cc(C(F)(F)F)c2)n1)NNc1cnccn1 + CC(CO)NC(=O)c1cc(-c2ccc(Cl)cc2)nn(-c2cnn(C)c2)c1=O
**Result** 71.2

----------
tested on: NCI-H196 complex spheroid growth, percent test/control; assay: Anticancer human tumor NCI-H196 cell line growth inhibition [AhR]; conditions: second compound 1 µM; first compound 3.16 µM; hits give low values;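 further: seven days of drug exposure starting three days after plating; 100% = DMSO vehicle control wells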
# if measured viability, T/C < 70%: Condition met  # else: Condition not met

**Query** Hi there! Is viability, T/C for Nc1ccn(C2OC(CO)C(O)C2(F)F)c(=O)n1 (stereo unspecified) + Cc1ccccc1N=Nc1ccc(NC(=O)c2ccnn2C)c(C)c1 below 70%, do you know?
**Result** Condition met

**Query** Another molecule to look at: O=C(c1cc(Cc2n[nH]c(=O)c3ccccc23)ccc1F)N1CCN(C(=O)C2CC2)CC1 + Cc1cncc(-c2nc(NCCc3c[nH]c4ccccc34)c3ncn(C(C)C)c3n2)c1
**Result** Condition not met

**Query** Another molecule to look at: NS(=O)(=O)OCC1CC(n2ccc3c(NC4CCc5ccccc54)ncnc32)CC1O (stereo unspecified) + Cc1ccccc1N=Nc1ccc(NC(=O)c2ccnn2C)c(C)c1
**Result** Condition not met

**Query** Another molecule to look at: COc1cc(C2c3cc4c(cc3C(OC3OC5COC(C)OC5C(O)C3O)C3COC(=O)C23)OCO4)cc(OC)c1O (stereo unspecified) + Cc1cncc(-c2nc(NCCc3c[nH]c4ccccc34)c3ncn(C(C)C)c3n2)c1
**Result** Condition not met

**Query** Another molecule to look at: COc1cc(C2c3cc4c(cc3C(OC3OC5COC(C)OC5C(O)C3O)C3COC(=O)C23)OCO4)cc(OC)c1O (stereo unspecified) + Cc1ccccc1N=Nc1ccc(NC(=O)c2ccnn2C)c(C)c1
**Result** Condition not met

----------
test system: NCI-H196 complex spheroid growth, percent test/control; experiment: Anticancer human tumor NCI-H196 cell line growth inhibition [AhR]; conditions: second compound 1 µM; first compound 3.16 µM; active = viability on the fitted dose curve at most 10% of control; inactive = the rest;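 further: seven days of drug exposure starting three days after plating; 100% = DMSO vehicle control wells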
Your answer must be one of the following: active, inactive

**Query** What did this assay record as the result for O=C(c1cc(Cc2n[nH]c(=O)c3ccccc23)ccc1F)N1CCN(C(=O)C2CC2)CC1 + CC(CO)NC(=O)c1cc(-c2ccc(Cl)cc2)nn(-c2cnn(C)c2)c1=O ?
**Result** inactive

**Query** Another molecule to look at: CC1(C)CCC(CN2CCN(c3ccc(C(=O)NS(=O)(=O)c4ccc(NCC5CCOCC5)c([N+](=O)[O-])c4)c(Oc4cnc5[nH]ccc5c4)c3)CC2)=C(c2ccc(Cl)cc2)C1 + Cc1cncc(-c2nc(NCCc3c[nH]c4ccccc34)c3ncn(C(C)C)c3n2)c1
**Result** inactive

**Query** Another molecule to look at: O=C(c1cc(Cc2n[nH]c(=O)c3ccccc23)ccc1F)N1CCN(C(=O)C2CC2)CC1 + Cc1ccccc1N=Nc1ccc(NC(=O)c2ccnn2C)c(C)c1
**Result** inactive

**Query** Another molecule to look at: CC1COCCN1c1cc(C2(S(C)(=N)=O)CC2)nc(-c2ccnc3[nH]ccc23)n1 (stereo not given) + Cc1cncc(-c2nc(NCCc3c[nH]c4ccccc34)c3ncn(C(C)C)c3n2)c1
**Result** inactive

**Query** Another molecule to look at: COc1cc(Nc2ncc3c(n2)-c2ccc(Cl)cc2C(c2c(F)cccc2OC)=NC3)ccc1C(=O)O + Cc1ccccc1N=Nc1ccc(NC(=O)c2ccnn2C)c(C)c1
**Result** inactive

**Query** Another molecule to look at: Nc1ccccc1NC(=O)c1ccc(CNC(=O)OCc2cccnc2)cc1 + Cc1cncc(-c2nc(NCCc3c[nH]c4ccccc34)c3ncn(C(C)C)c3n2)c1
**Result** inactive

**Query** Another molecule to look at: COc1ccc([C@@H](O)c2cc(-c3ncnc4cc(N5CCOCC5)ccc34)c(F)cc2Cl)nn1 + Cc1cncc(-c2nc(NCCc3c[nH]c4ccccc34)c3ncn(C(C)C)c3n2)c1
**Result** inactive

**Query** Another molecule to look at: COc1cc(C2c3cc4c(cc3C(OC3OC5COC(C)OC5C(O)C3O)C3COC(=O)C23)OCO4)cc(OC)c1O (stereo not given) + CC(CO)NC(=O)c1cc(-c2ccc(Cl)cc2)nn(-c2cnn(C)c2)c1=O
**Result** inactive

**Query** Another molecule to look at: COc1cccc2c1C(=O)c1c(O)c3c(c(O)c1C2=O)CC(O)(C(=O)CO)CC3OC1CC(N)C(O)C(C)O1 (stereo not given) + Cc1cncc(-c2nc(NCCc3c[nH]c4ccccc34)c3ncn(C(C)C)c3n2)c1
**Result** active

**Query** Another molecule to look at: Nc1ccn(C2OC(CO)C(O)C2(F)F)c(=O)n1 (stereo not given) + CC(CO)NC(=O)c1cc(-c2ccc(Cl)cc2)nn(-c2cnn(C)c2)c1=O
**Result** inactive

**Query** Another molecule to look at: O=C(C=Cc1cccc(S(=O)(=O)Nc2ccccc2)c1)NO + Cc1cncc(-c2nc(NCCc3c[nH]c4ccccc34)c3ncn(C(C)C)c3n2)c1
**Result** inactive

**Query** Another molecule to look at: COc1ccc([C@@H](O)c2cc(-c3ncnc4cc(N5CCOCC5)ccc34)c(F)cc2Cl)nn1 + CC(CO)NC(=O)c1cc(-c2ccc(Cl)cc2)nn(-c2cnn(C)c2)c1=O
**Result** inactive

**Query** Another molecule to look at: CC1(C)CCC(CN2CCN(c3ccc(C(=O)NS(=O)(=O)c4ccc(NCC5CCOCC5)c([N+](=O)[O-])c4)c(Oc4cnc5[nH]ccc5c4)c3)CC2)=C(c2ccc(Cl)cc2)C1 + Cc1ccccc1N=Nc1ccc(NC(=O)c2ccnn2C)c(C)c1
**Result** inactive

**Query** Another molecule to look at: COc1ccc([C@@H](O)c2cc(-c3ncnc4cc(N5CCOCC5)ccc34)c(F)cc2Cl)nn1 + Cc1ccccc1N=Nc1ccc(NC(=O)c2ccnn2C)c(C)c1
**Result** inactive

**Query** Another molecule to look at: Nc1ccccc1NC(=O)c1ccc(CNC(=O)OCc2cccnc2)cc1 + CC(CO)NC(=O)c1cc(-c2ccc(Cl)cc2)nn(-c2cnn(C)c2)c1=O
**Result** inactive
